Recorded measurements of IC50, one per entry
# Study System: UniProtKB P24941

>  <Compound>
Cc1nc(C)c(-c2ccnc(Nc3ccc(CCO)cc3)n2)s1

>  <Study System>
UniProtKB P24941

>  <IC50 / nM>
470

$$$$
>  <Compound>
COc1nc(C)c(-c2ccnc(Nc3ccc(C)c([N+](=O)[O-])c3)n2)s1

>  <Study System>
UniProtKB P24941

>  <IC50 / nM>
110

$$$$
>  <Compound>
COc1ccc(Nc2nccc(-c3sc(OC)nc3C)n2)cc1

>  <Study System>
UniProtKB P24941

>  <IC50 / nM>
250

$$$$
>  <Compound>
COc1nc(C)c(-c2ccnc(Nc3cccc([N+](=O)[O-])c3)n2)s1

>  <Study System>
UniProtKB P24941

>  <IC50 / nM>
60

$$$$
>  <Compound>
COc1nc(C)c(-c2ccnc(Nc3ccc(F)cc3)n2)s1

>  <Study System>
UniProtKB P24941

>  <IC50 / nM>
120

$$$$
>  <Compound>
COc1nc(C)c(-c2ccnc(Nc3ccc(O)cc3)n2)s1

>  <Study System>
UniProtKB P24941

>  <IC50 / nM>
50

$$$$
>  <Compound>
COc1nc(C)c(-c2ccnc(Nc3ccc(N(C)C)cc3)n2)s1

>  <Study System>
UniProtKB P24941

>  <IC50 / nM>
750

$$$$
